Catalogue of sequences with associated sensor-assay potency score (higher = more potent)
target or test system: MEPCE
test details: pooled miR-30 sensor sort-seq; sequence = guide strand; also: reference of the scale not given here
details: shRNA

Query: For the sequence shown here, TTGTTGGGGAAGACTGATGTGT , give the reported sensor-assay potency score (higher = more potent).
Reply: -0.599

Query: Could you share which sensor-assay potency score (higher = more potent) value was measured for TTCTTGTAGATCGTTTCTGTAA ?
Reply: -0.866

Query: sensor-assay potency score (higher = more potent) for TTGGATTCGGTAGTAGTTCTTG ?
Reply: 0.313

Query: Which value of sensor-assay potency score (higher = more potent) has been reported for TTCAGATGCACCCACTTGGTGA in the records?
Reply: -1.03

Query: Which sensor-assay potency score (higher = more potent) reading was recorded for the sequence TGATGTGTCCGCTCCATCCAAG ?
Reply: -1.38

Query: Consider the sequence TAGTGTCGGATGTTTTGGCGGG and give its measured sensor-assay potency score (higher = more potent).
Reply: -0.437

----------
target or test system: ZNF599
test details: pooled miR-30 sensor sort-seq; sequence = guide strand
details: shRNA
Class rule met: sensor-assay potency score (higher = more potent) at least -0.6. Class rule not met: sensor-assay potency score (higher = more potent) below -0.6.

TTGAGAGTCACACTCATGGAGA rule not met

Query: Answer whether sensor-assay potency score (higher = more potent) of AATCTCTTGAGGATCTCTGTGC is greater than or equal to -0.6.
Reply: rule met

Query: Does the sequence TTCTCTACAAACATAGGGCTTC have recorded sensor-assay potency score (higher = more potent) that is -0.6 or more?
Reply: rule met

Query: Decide: sensor-assay potency score (higher = more potent) of TATGGGTCCTCTTATGTCGGAT >= -0.6?
Reply: rule met

Query: Test whether the sequence TTAGCTTTTCCTCATCTCTAGC records sensor-assay potency score (higher = more potent) of -0.6 or higher.
Reply: rule met

----------
target or test system: GPR35
test details: pooled miR-30 sensor sort-seq; sequence = guide strand
details: shRNA
Below is a list of entries, each paired with its recorded sensor-assay potency score (higher = more potent) value.
Respond with the number and no other words.

TTGCTGGTTATGTACAGGGCGC -1.43

Query: Quick check: sensor-assay potency score (higher = more potent) of TTGGCCATGTAGTAGTAGCAGA ?
Reply: -0.948

Query: Can you look up the measured sensor-assay potency score (higher = more potent) of TAGCAGATGGCGTCCAGGCAGC for me?
Reply: -1.38

Query: Entry TTTGTGGGCCTTAGCACTGGGA : reported sensor-assay potency score (higher = more potent) = ?
Reply: -1.13

----------
target or test system: SMC2
test details: pooled miR-30 sensor sort-seq; sequence = guide strand
details: shRNA
Note to self: values exactly at 0.4 are met. So sensor-assay potency score (higher = more potent) at or above 0.4 is met, below is not met.

Worked examples, 5 sequences total:
TTCATTTACAGCTTCAAGCTGT met
TCTACCACCAATAACCACCTGC met
TTTTTGTATTCATACATCCTGG not met
TTCTGGTTTATATTCAACCAAG not met
TAATTCTTCTTGTTGCTTGTGA met

Query: // inclusive: sensor-assay potency score (higher = more potent) at least 0.4? input: TTGAGTTCTTGAAACTTGGTTA
Reply: not met

Query: Determine whether measured sensor-assay potency score (higher = more potent) meets or exceeds 0.4 for TTGTTTATTCTTTAATTCCTGT
Reply: not met

Origin of measurements: the OligoGym collection
